tested on: KB; test: Cytotoxicity against KB cell line; assay type: functional; settings: Homo sapiens, read-out: TD50 (the source's name)
REPORTED_ENDPOINT: CC50 (µM)
Number only, in µM; omit the unit.

Given item COC(=O)[C@H](CCCCNC[C@@H](C)[C@H]1CC[C@H]2C3CC=C4C[C@@H](OC(C)=O)CC[C@]4(C)[C@H]3CC[C@]12C)NC(=O)OCc1ccccc1 (stereo partly drawn) , the value recorded as its CC50 is 5.35

Notebook: C[C@]12CC[C@H](O)C[C@@H]1CC[C@@H]1[C@@H]2CC[C@@]2(C)[C@H]1CC[C@@H]2[C@@](C)(O)C1CCCCN1 (stereo partly drawn) , CC50 read as 11.9

Memo: COC(=O)CCCCCNC[C@@H](C)[C@H]1CC[C@H]2C3CC=C4C[C@@H](O)CC[C@]4(C)[C@H]3CC[C@]12C (stereo partly drawn) , reported CC50: 6.09

---

test system: KB; assay: Cytotoxicity against KB cell line; format: functional; settings: Homo sapiens, read-out: TD50 (the source's name)
REPORTED_ENDPOINT: CC50 (µM)
Provide the reading as a plain figure in µM.

Record summary for COC(=O)CCCCCCCNC[C@@H](C)[C@H]1CC[C@H]2C3CC=C4C[C@@H](OC(C)=O)CC[C@]4(C)[C@H]3CC[C@]12C (stereo partly specified) : reported CC50 = 10

Please fill in: CC50 reported for C[C@H](C(=O)NCCCCC(=O)O)[C@H]1CC[C@H]2C3CC=C4C[C@@H](O)CC[C@]4(C)[C@H]3CC[C@]12C (stereo partly specified) = 561

Lab book: CC50 of C[C@H](C(=O)NCCCC(=O)O)[C@H]1CC[C@H]2C3CC=C4C[C@@H](O)CC[C@]4(C)[C@H]3CC[C@]12C (stereo partly specified) noted as 616

compound COC(=O)CCCCCCCNC[C@@H](C)[C@H]1CC[C@H]2C3CC=C4C[C@@H](O)CC[C@]4(C)[C@H]3CC[C@]12C (stereo partly specified) , CC50 observed: 6.17

For COC(=O)CCCNC[C@@H](C)[C@H]1CC[C@H]2C3CC=C4C[C@@H](OC(C)=O)CC[C@]4(C)[C@H]3CC[C@]12C (stereo partly specified) the compound record lists CC50 as 19.2

Value of measured CC50 for the entry C[C@H](C(=O)NC[C@H](NC(=O)OC(C)(C)C)C(=O)O)[C@H]1CC[C@H]2C3CC=C4C[C@@H](O)CC[C@]4(C)[C@H]3CC[C@]12C (stereo partly specified) : 109

---

tested on: KB; experiment: Cytotoxicity against KB cell line; assay type: functional; conditions: Homo sapiens, read-out: TD50 (the source's name)
REPORTED_ENDPOINT: CC50

Documented CC50 of COC(=O)CNC(=O)[C@@H](C)[C@H]1CC[C@H]2C3CC=C4C[C@@H](OC(C)=O)CC[C@]4(C)[C@H]3CC[C@]12C (stereo partly drawn) : > 653 µM

CC50 reading for C[C@H](CNCCCC[C@H](NC(=O)OCc1ccccc1)C(=O)O)[C@H]1CC[C@H]2C3CC=C4C[C@@H](O)CC[C@]4(C)[C@H]3CC[C@]12C (stereo partly drawn) : > 504 µM

Briefly, CC50 measured for COC(=O)CCCNC(=O)[C@@H](C)[C@H]1CC[C@H]2C3CC=C4C[C@@H](OC(C)=O)CC[C@]4(C)[C@H]3CC[C@]12C (stereo partly drawn) : > 615 µM
